- system-under-test: Small ubiquitin-related modifier 1 (Homo sapiens)
- Sequence (P63165 whole entry): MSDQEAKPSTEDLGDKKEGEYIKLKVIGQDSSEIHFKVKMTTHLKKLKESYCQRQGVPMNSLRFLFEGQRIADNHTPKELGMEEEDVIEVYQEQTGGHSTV
- measurement-notes: SUMO1 protein-protein binding blockers, potency – biochemical, FRET, dose response (AID 624383)
- Type: functional
- assay-setup: read-out: IC50_Mean
Activity calls are given as the source filed them.
Could you please pick one outcome from this set? 1 (yes) for active, 0 (no) for inactive

Previously resolved entries follow.
CCOc1ccc(NC(=O)c2cccc(-n3cccc3)c2)cc1S(=O)(=O)N1CCOCC1 = 1 (yes)
CCC(CO)Oc1cc(NC(=O)c2ccc(N)cc2)c2ncn(C(C)C)c2c1 (centres undefined) = 1 (yes)
COc1ccc(OC)c(-c2csc(NC(=O)Cn3[nH]c(=O)c4ccccc4c3=O)n2)c1 = 0 (no)

Now turn to the next molecule.
Task: Each molecule tested received a call. Report the one for CC(=O)c1ccc2c(c1)C1C=CCC1C(C(=O)O)N2 (centres undefined) .
Result: 1 (yes)

====

- system-under-test: UniProt:P33261
- Sequence (P33261 whole entry): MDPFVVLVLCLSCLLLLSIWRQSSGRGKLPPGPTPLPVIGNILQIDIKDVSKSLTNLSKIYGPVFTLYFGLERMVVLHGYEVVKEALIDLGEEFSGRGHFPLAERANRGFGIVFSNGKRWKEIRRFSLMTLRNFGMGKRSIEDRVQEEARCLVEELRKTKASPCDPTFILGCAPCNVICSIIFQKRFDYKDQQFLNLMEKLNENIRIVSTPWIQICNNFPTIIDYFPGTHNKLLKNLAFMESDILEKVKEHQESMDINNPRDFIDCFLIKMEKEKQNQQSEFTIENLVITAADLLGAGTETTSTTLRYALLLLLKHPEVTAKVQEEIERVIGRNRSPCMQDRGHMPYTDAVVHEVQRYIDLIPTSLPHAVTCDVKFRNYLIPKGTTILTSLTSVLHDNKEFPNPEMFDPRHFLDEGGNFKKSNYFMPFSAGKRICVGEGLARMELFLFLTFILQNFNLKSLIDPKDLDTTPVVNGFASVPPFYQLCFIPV
- measurement-notes: Cytochrome panel assay with activity outcomes. Panel member name: p450-cyp2c19 Compounds with AC50 equal or less than 10 uM are considered active
- Format: functional
- assay-setup: read-out: AC50
experimental-endpoint: AC50

Guide cases for AC50, answers given:
COc1ccc(Cc2nnc(NC(=O)CSc3ccc(C)cc3)s2)cc1OC = 0.891 µM (inconclusive)
COc1ccc(-n2c(CNc3ccc(C)cc3)nnc2SCC(=O)Nc2nc(-c3ccccc3)cs2)cc1 = 0.355 µM (inconclusive)
COc1ccccc1-c1nc(NCc2cnc(C)cn2)c2ccccc2n1 = 39.8 µM (inconclusive)
COc1cccc(-c2noc(Cn3nc(C)c([N+](=O)[O-])c3C)n2)c1 = 1 µM (inconclusive)
CC(C)(C)c1ccc(C(=O)NC(Cc2ccccc2)C(=O)O)cc1 (stereo unspecified) = 22.4 µM (inconclusive)

Task: Supply measured AC50 of CC1Cc2ccccc2N1C(=O)CCN1C(=O)C2C3C=CC(C3)C2C1=O (stereo unspecified) in your reply.
Result: 10 µM (inconclusive)

Task: Dear colleague, please send me the reported AC50 for Cc1noc(C)c1-c1nccc(N2CCOCC2)n1 when you can.
Result: 10 µM (inconclusive)

Task: Provide only the value of recorded AC50 for c1cc(N2CCCC3(CCNCC3)C2)ccn1
Result: 25.1 µM (inconclusive)

Task: Fill in AC50 for record CSc1nc(C)c2c(n1)N(c1ccc(C(C)C)cc1)CC2
Result: 17.8 µM (inconclusive)

Task: // Input: O=C(NCCCN1CCOCC1)c1cc(C(=O)C2CC2)c[nH]1 . Output its AC50 only.
Result: 3.98 µM (inconclusive)

Task: Please supply the value of reported AC50 for the item Cc1ccc(C(=O)ON=C2CCN(S(=O)(=O)c3ccccc3)CC2)cc1
Result: 5.01 µM (inconclusive)

====

- system-under-test: Fructose-bisphosphate aldolase (Mycobacterium tuberculosis, UniProt P9WQA3)
- Sequence (P9WQA3 whole entry): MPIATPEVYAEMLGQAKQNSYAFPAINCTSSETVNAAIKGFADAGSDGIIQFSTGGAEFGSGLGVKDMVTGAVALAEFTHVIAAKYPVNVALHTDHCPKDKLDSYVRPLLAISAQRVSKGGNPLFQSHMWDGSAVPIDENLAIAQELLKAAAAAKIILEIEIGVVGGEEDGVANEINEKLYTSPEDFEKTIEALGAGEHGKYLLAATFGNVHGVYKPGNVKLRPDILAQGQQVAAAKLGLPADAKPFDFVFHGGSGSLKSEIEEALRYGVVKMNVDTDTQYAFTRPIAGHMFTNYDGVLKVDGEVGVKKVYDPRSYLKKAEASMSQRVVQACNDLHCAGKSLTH
- measurement-notes: Fluorescence-based biochemical high throughput dose response assay for inhibitors of the fructose-bisphosphate aldolase (FBA) of M. tuberculosis.
- Type: functional
The source made the active and inactive calls.
experimental-endpoint: IC50

Task: Fetch value of IC50 on Fructose-bisphosphate aldolase (Mycobacterium tuberculosis, UniProt P9WQA3) for CCOc1ccc(NC(=O)NNC(=O)c2ccc3ccccc3c2O)cc1 .
Result: 3.15 µM (active)

Task: Output reported IC50 of the compound CC1(C)CC(=O)C2=C(C1)N(CCN1CCOCC1)C1=C(C(=O)CC(C)(C)C1)C2c1ccc(Cl)cc1 on Fructose-bisphosphate aldolase (Mycobacterium tuberculosis, UniProt P9WQA3).
Result: 2.33 µM (active)

Task: For Fructose-bisphosphate aldolase (Mycobacterium tuberculosis, UniProt P9WQA3), give the measured IC50 of the entry CCCSc1nnc(NC(=O)CSc2sc3c(O)cc(O)nc3c2C#N)s1
Result: > 9.99 µM (inactive)

Task: Answer with IC50 of CC1(C)Oc2cc3oc(C(=O)O)cc(=O)c3cc2-c2ccccc21 measured for Fructose-bisphosphate aldolase (Mycobacterium tuberculosis, UniProt P9WQA3).
Result: > 0.37 µM (active)
